Cholinesterase (Equus caballus): recorded IC50 for assorted compounds
Sequence (P81908 whole entry): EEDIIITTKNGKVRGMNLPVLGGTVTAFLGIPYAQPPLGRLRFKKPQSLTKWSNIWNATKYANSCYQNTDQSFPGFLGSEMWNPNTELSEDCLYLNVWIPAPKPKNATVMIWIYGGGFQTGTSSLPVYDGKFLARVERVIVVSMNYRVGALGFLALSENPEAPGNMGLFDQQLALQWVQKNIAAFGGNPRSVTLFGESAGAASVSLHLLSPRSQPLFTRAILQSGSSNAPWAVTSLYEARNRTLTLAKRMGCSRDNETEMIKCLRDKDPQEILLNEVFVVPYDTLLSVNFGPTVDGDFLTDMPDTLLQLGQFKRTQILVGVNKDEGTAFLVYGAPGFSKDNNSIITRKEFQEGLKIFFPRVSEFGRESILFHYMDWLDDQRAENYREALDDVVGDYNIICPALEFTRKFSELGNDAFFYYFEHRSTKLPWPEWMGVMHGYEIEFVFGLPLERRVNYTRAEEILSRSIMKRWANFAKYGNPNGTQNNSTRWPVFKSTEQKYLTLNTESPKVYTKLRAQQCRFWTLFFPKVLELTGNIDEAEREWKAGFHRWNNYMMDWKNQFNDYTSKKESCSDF
Field format: number, assumed µM, no unit text.

Fill in the recorded IC50 for this compound, with Cholinesterase (Equus caballus) as test system: "CC1=CCC[C@H]2[C@](C)(Cc3cc(O)cc(Sc4ccccc4C(=O)O)c3O)[C@@H](C)CC[C@]12C"
15.1

Fill in the recorded IC50 for this compound, with Cholinesterase (Equus caballus) as test system: "CC(C)=CCC/C(C)=C/CC/C(C)=C/CC/C(C)=C/Cc1cc(O)cc(Sc2ccccc2C(=O)O)c1O"
19.7

Fill in the recorded IC50 for this compound, with Cholinesterase (Equus caballus) as test system: C/C(=C\Cc1cc(O)cc(Sc2ccccc2C(=O)O)c1O)CCCC(C)CCCC(C)CCCC(C)C (stereo not drawn)
12.8

* * *

target: Acetylcholinesterase (Electrophorus electricus)
readout type: pIC50
// pIC50: -log10(molar conc.)

Known results for molecules:
Fill in the recorded pIC50 for this molecule, with Acetylcholinesterase (Electrophorus electricus) as test system: "CC1=CCC[C@H]2[C@](C)(Cc3cc(O)ccc3O)[C@@H](C)CC[C@]12C"
3.54

Fill in the recorded pIC50 for this molecule, with Acetylcholinesterase (Electrophorus electricus) as test system: "CC(C)=CCC/C(C)=C/Cc1cc(O)cc(Sc2ccccc2C(=O)O)c1O"
4.88

Fill in the recorded pIC50 for this molecule, with Acetylcholinesterase (Electrophorus electricus) as test system: C/C(=C\Cc1cc(O)cc(Sc2ccccc2C(=O)O)c1O)CCCC(C)CCCC(C)CCCC(C)C (configuration not stated)
4.86

Fill in the recorded pIC50 for this molecule, with Acetylcholinesterase (Electrophorus electricus) as test system: "CC1=CCC[C@H]2[C@](C)(Cc3cc(O)cc(Sc4ccccc4C(=O)O)c3O)[C@@H](C)CC[C@]12C"
4.82

Fill in the recorded pIC50 for this molecule, with Acetylcholinesterase (Electrophorus electricus) as test system: "CC(C)=CCC/C(C)=C/CC/C(C)=C/Cc1cc(O)cc(Sc2ccccc2C(=O)O)c1O"
4.74

More entries:
Fill in the recorded pIC50 for this molecule, with Acetylcholinesterase (Electrophorus electricus) as test system: "CC(C)=CCC/C(C)=C/CC/C(C)=C/CC/C(C)=C/Cc1cc(O)cc(Sc2ccccc2C(=O)O)c1O"
5.17

Fill in the recorded pIC50 for this molecule, with Acetylcholinesterase (Electrophorus electricus) as test system: "CC(C)=CCc1cc(O)cc(Sc2ccccc2C(=O)O)c1O"
5.10

* * *

Measured pKi by item
biological target: Acetylcholinesterase (Electrophorus electricus, UniProt O42275)
Sequence (O42275 whole entry): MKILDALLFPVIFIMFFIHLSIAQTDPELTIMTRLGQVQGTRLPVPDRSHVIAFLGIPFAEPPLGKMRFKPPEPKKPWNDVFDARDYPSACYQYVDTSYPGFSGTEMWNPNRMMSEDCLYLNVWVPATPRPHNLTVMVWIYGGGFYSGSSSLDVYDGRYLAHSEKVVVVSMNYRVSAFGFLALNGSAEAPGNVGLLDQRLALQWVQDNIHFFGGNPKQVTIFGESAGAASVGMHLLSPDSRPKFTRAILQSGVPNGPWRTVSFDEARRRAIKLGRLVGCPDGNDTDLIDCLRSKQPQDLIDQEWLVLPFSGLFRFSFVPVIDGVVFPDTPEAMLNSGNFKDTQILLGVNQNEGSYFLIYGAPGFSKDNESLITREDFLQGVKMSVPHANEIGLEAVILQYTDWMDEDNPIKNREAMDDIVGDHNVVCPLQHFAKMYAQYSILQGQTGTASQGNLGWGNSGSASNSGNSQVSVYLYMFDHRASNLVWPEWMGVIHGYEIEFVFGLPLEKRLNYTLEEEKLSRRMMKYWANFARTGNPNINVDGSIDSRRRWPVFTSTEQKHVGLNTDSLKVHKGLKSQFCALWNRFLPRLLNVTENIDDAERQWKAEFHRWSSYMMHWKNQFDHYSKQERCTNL
// pKi: -log10(molar conc.)

# pKi lookup, item "CC(C)=CCc1cc(O)cc(Sc2ccccc2C(=O)O)c1O"
9.66

# pKi lookup, item "CC(C)=CCC/C(C)=C/CC/C(C)=C/CC/C(C)=C/Cc1cc(O)cc(Sc2ccccc2C(=O)O)c1O"
12.23

# pKi lookup, item "CC1=CCC[C@H]2[C@](C)(Cc3cc(O)cc(Sc4ccccc4C(=O)O)c3O)[C@@H](C)CC[C@]12C"
10.23

* * *

target: UniProt P81908; assay: Inhibition of equine serum BuChE using butyrylthiocholine iodide as substrate at 50 uM incubated for 15 mins followed by substrate addition by Ellman's method
readout type: Imax

Known results for compounds:
# Imax lookup, item "CC(C)=CCc1cc(O)cc(Sc2ccccc2C(=O)O)c1O"
13.1%

# Imax lookup, item "CC(C)=CCC/C(C)=C/CC/C(C)=C/Cc1cc(O)cc(Sc2ccccc2C(=O)O)c1O"
8.4%

# Imax lookup, item C/C(=C\Cc1cc(O)cc(Sc2ccccc2C(=O)O)c1O)CCCC(C)CCCC(C)CCCC(C)C (stereo unspecified)
94.3 to 95%

# Imax lookup, item "CC(C)=CCC/C(C)=C/CC/C(C)=C/CC/C(C)=C/Cc1cc(O)cc(Sc2ccccc2C(=O)O)c1O"
60.5%

# Imax lookup, item "CC(C)=CCC/C(C)=C/Cc1cc(O)cc(Sc2ccccc2C(=O)O)c1O"
17.8%

Shift focus to the following entry.
# Imax lookup, item "CC1=CCC[C@H]2[C@](C)(Cc3cc(O)cc(Sc4ccccc4C(=O)O)c3O)[C@@H](C)CC[C@]12C"
77.5%

Ref: ChEMBL document CHEMBL3868581
